# IC50 annotations
Target: T1, rat amylin receptor (rat calcitonin receptor + rat RAMP 3) (rat, UniProt P32214 25-516; Q9JJ73 23-147)
T1 construct: whole, on cells; membranes of transiently transfected BHK tk'ts 13 cells (Assay VI); also called rAmylin-R; rat amylin 3(a) receptor
T1 sequence (looked up) 1: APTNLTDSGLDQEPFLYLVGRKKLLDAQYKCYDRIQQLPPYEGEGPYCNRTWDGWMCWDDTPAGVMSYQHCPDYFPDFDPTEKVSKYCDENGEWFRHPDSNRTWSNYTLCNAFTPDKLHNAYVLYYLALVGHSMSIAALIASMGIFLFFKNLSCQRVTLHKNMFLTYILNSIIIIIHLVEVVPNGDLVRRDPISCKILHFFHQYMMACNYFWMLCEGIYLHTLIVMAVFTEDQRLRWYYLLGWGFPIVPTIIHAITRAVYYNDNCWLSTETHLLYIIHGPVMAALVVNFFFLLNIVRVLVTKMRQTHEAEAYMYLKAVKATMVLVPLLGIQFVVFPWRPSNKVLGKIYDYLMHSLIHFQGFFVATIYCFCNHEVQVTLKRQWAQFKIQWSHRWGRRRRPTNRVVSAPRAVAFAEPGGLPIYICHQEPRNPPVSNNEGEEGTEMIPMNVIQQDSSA
T1 sequence (looked up) 2: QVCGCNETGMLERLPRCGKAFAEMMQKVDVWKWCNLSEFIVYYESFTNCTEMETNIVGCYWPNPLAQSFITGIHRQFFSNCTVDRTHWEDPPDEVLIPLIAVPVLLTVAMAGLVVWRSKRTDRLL
Test: SPA competition with 125I-rat amylin, membranes of BHK cells with rat calcitonin receptor + rat RAMP3 (Assay VI)
Numbered stars: 1 amine (or outer) side, 2 acyl side, 3 side chain; on linkers, the order of the positions; unused ones are H or OH. Bridge positions count the residues as written; N and C are the ends. Side chains are listed from the residue outwards. Ends that are not written are not given here. * marks the point of attachment. C20 diacid = O=C(O)CCCCCCCCCCCCCCCCCCC(=O)*; γGlu = O=C(O)[C@H](CCC(=O)[*:2])N[*:1]; AEEA = NCCOCCOCC(=O)O
REPORTED_PROPERTY: IC50 (nM)

binder="K([AEEA-AEEA-γGlu-C20 diacid])CNTATCATQRLANFLRHSSPNFGAIPSSTNVGSETY-NH2 (disulfide 2-7 (inferred), analogue of human amylin; also called compound 25)" readout_units=nM reported_result=3.48
binder="K([γGlu-γGlu-C20 diacid])CNTATCATQRLADFLRHSSNPFGAPLSSTNVGSDTY-NH2 (disulfide 2-7 (inferred), analogue of human amylin; also called compound 3)" readout_units=nM reported_result=1
